# Target Or System: zfPXR (Danio rerio, UniProt A5WYG8)
# Sequence (A5WYG8 entry or part of it): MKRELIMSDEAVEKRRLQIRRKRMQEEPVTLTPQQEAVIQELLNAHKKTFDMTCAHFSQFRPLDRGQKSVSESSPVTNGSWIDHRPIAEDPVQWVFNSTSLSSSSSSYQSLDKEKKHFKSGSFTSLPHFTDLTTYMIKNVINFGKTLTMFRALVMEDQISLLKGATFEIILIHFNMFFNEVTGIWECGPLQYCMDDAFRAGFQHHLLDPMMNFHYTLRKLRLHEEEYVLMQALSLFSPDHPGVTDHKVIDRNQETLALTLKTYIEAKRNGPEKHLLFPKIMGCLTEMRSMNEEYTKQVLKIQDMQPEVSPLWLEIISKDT
# Assay: HG5LN Gal4-zfPXR luciferase reporter gene assay, agonism
# Format: cell-based, zebrafish
# Condition Description: HG5LN-zfPXR; maximal activity at 10 µM, % of maximal induced by 1 µM clotrimazole; DMSO 28 ± 1.7
Quantity: zfPXR agonism Max (%)
Give the number; % is assumed, so skip it.

Known results for compounds:
Ask: Answer with reported zfPXR agonism Max of CCOP(=O)(NC(C)C)Oc1ccc(SC)c(C)c1 (stereo not shown)
Reply: 103

Ask: Answer with reported zfPXR agonism Max of ClC(Cl)=C(c1ccc(Cl)cc1)c1ccccc1Cl
Reply: 57

Ask: Answer with reported zfPXR agonism Max of Oc1ccc(C(c2ccc(O)cc2)C(Cl)(Cl)Cl)cc1
Reply: 37

Proceed to the following item.
Ask: Answer with reported zfPXR agonism Max of ClC1=C(Cl)[C@]2(Cl)[C@H]3[C@H]([C@H](Cl)C(Cl)[C@@H]3Cl)[C@@]1(Cl)C2(Cl)Cl (stereo partly drawn) [Trans-nonachlor]
Reply: 43

* * *

# Target Or System: hPXR (Homo sapiens, UniProt O75469)
# Assay: HG5LN Gal4-hPXR luciferase reporter gene assay, agonism
# Condition Description: HG5LN-hPXR; maximal activity at 10 µM, % of maximal induced by 3 µM SR 12813; DMSO 19 ± 6
The entries below are paired with their reported hPXR agonism Max.

Known results for compounds:
Ask: Answer with reported hPXR agonism Max of OC(c1ccc(Cl)cc1)(c1cncnc1)c1ccccc1Cl (centres unmarked)
Reply: 56%

Ask: Answer with reported hPXR agonism Max of CCCC1COC(Cn2cncn2)(c2ccc(Cl)cc2Cl)O1 (centres unmarked)
Reply: 58%

Continuing:
Ask: Answer with reported hPXR agonism Max of COP(=S)(OC)Oc1c(Cl)cc(C)cc1Cl
Reply: 59%

Ask: Answer with reported hPXR agonism Max of CCN(CC)c1nc(C)cc(OP(=S)(OC)OC)n1
Reply: 69%

Ask: Answer with reported hPXR agonism Max of ClC1=C(Cl)[C@]2(Cl)[C@H]3[C@H]([C@H](Cl)[C@]4(Cl)O[C@H]34)[C@@]1(Cl)C2(Cl)Cl
Reply: 69%

* * *

# Target Or System: zfPXR (Danio rerio)
# Assay: HG5LN Gal4-zfPXR luciferase reporter gene assay, agonism
# Type: cell-based, zebrafish
# Design: dose or concentration left out as unconfirmed
# Condition Description: HG5LN, read-out: zfPXR agonism Max
The entries below are paired with their reported Emax.
Give the number; % is assumed, so skip it.

Ask: Answer with reported Emax of COCC(=O)N(c1c(C)cccc1C)C(C)C(=O)OC (stereo not shown) [Metalaxyl]
Reply: 42

Ask: Answer with reported Emax of O=C(Nc1ccccc1-c1ccc(Cl)cc1)c1cccnc1Cl
Reply: 41

Ask: Answer with reported Emax of CCN(CC)c1nc(C)cc(OP(=S)(OC)OC)n1
Reply: 103

Proceed to the following item.
Ask: Answer with reported Emax of COP(=S)(OC)Oc1c(Cl)cc(C)cc1Cl
Reply: 88

* * *

The entries below are paired with their reported pEC50.
# Target Or System: hPXR (Homo sapiens, UniProt O75469)
# Assay: HG5LN Gal4-hPXR luciferase reporter gene assay, agonism
# Description: The cell lines used in this study are listed in Supplementary Table 3 . The HG5LN, HG5LN Gal4-hPXR and HG5LN Gal4-zfPXR cell lines were previously described ([19]). Briefly, HeLa cells stably transfected with the GAL4RE5-βGlobin-Luc-SVNeo plasmid (HG5LN cell line) ([15]). HG5LN cells were stably transfected with the pSG5-GAL4(DBD)-hPXR(LBD)-puro or pSG5-GAL4(DBD)-zfPXR(LBD)-puro plasmids. […]
Bear in mind: pEC50 is minus log10 of a mol/L concentration; give just that figure.

Known results for compounds:
Ask: Answer with reported pEC50 of CC(C)C(C(=O)OC(C#N)c1cccc(Oc2ccccc2)c1)c1ccc(Cl)cc1 (stereo not drawn) [Fenvalerate]
Reply: 5.77

Ask: Answer with reported pEC50 of CC(C)[C@H](Nc1ccc(C(F)(F)F)cc1Cl)C(=O)OC(C#N)c1cccc(Oc2ccccc2)c1 (stereo partly drawn) [Fluvalinate]
Reply: 5.96

Ask: Answer with reported pEC50 of Cl[C@H]1[C@H](Cl)[C@@H](Cl)[C@@H](Cl)[C@H](Cl)[C@H]1Cl [Lindane]
Reply: 5.00

Continuing:
Ask: Answer with reported pEC50 of CCN(CC)c1nc(C)cc(OP(=S)(OC)OC)n1 [Pirimiphos-methyl]
Reply: 4.66

Ask: Answer with reported pEC50 of ClC1=C(Cl)C2(Cl)C3C4CC(C5OC45)C3C1(Cl)C2(Cl)Cl (stereo not drawn) [Endrin]
Reply: 5.16

Ask: Answer with reported pEC50 of CCOc1cc(Oc2ccc(C(F)(F)F)cc2Cl)ccc1[N+](=O)[O-] [Oxyfluorfen]
Reply: 5.52

* * *

# Target Or System: hPXR (Homo sapiens)
# Sequence (O75469 146-433 limits assumed): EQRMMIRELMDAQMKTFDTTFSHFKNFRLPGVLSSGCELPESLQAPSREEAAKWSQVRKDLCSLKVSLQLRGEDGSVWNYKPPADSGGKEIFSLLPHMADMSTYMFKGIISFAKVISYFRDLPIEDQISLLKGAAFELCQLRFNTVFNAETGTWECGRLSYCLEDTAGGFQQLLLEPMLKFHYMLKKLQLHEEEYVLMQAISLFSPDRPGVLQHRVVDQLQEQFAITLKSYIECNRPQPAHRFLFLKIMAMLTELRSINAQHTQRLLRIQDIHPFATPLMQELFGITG
# Assay: HG5LN Gal4-hPXR luciferase reporter gene assay, agonism
The entries below are paired with their reported hPXR agonism Max.
Give the number; % is assumed, so skip it.

Ask: Answer with reported hPXR agonism Max of O=C(Nc1ccccc1)N(Cc1ccc(Cl)cc1)C1CCCC1 [Pencycuron]
Reply: 98

Ask: Answer with reported hPXR agonism Max of COc1ccc(C(c2ccc(OC)cc2)C(Cl)(Cl)Cl)cc1 [Methoxychlor]
Reply: 49

Ask: Answer with reported hPXR agonism Max of CC1(C)C(C(Cl)Cl)C2(Cl)C(Cl)C(Cl)C1(Cl)C2(Cl)Cl (centres unmarked) [Toxaphene]
Reply: 89

Ask: Answer with reported hPXR agonism Max of CC(C)C(C(=O)OC(C#N)c1cccc(Oc2ccccc2)c1)c1ccc(Cl)cc1 (centres unmarked) [Fenvalerate]
Reply: 79

Ask: Answer with reported hPXR agonism Max of C#C[C@]1(O)CC[C@H]2[C@@H]3CCC4=CCCC[C@@H]4[C@H]3CC[C@@]21C [Lynestrenol, reference compound]
Reply: 30

Ask: Answer with reported hPXR agonism Max of N#Cc1nn(-c2c(Cl)cc(C(F)(F)F)cc2Cl)c(N)c1S(=O)(=O)C(F)(F)F [Fipronil sulfone]
Reply: 73

Ask: Answer with reported hPXR agonism Max of Oc1cc(Cl)ccc1Oc1ccc(Cl)cc1Cl [Triclosan]
Reply: 62

Ask: Answer with reported hPXR agonism Max of ClC1=C(Cl)[C@]2(Cl)[C@@H]3[C@@H](Cl)[C@H]4O[C@H]4[C@@H]3[C@@]1(Cl)C2(Cl)Cl [Heptachlor exo-epoxide]
Reply: 85

Ask: Answer with reported hPXR agonism Max of ClC1=C(Cl)[C@]2(Cl)[C@H]3[C@H]([C@H](Cl)C(Cl)[C@@H]3Cl)[C@@]1(Cl)C2(Cl)Cl (stereo partly drawn) [Cis-nonachlor]
Reply: 62

Ask: Answer with reported hPXR agonism Max of CCC(CC)Nc1c([N+](=O)[O-])cc(C)c(C)c1[N+](=O)[O-] [Pendimethalin]
Reply: 91

Ask: Answer with reported hPXR agonism Max of C#C[C@]1(O)CC[C@H]2[C@@H]3CCC4=CCCC[C@@H]4[C@H]3C(=C)C[C@@]21CC [Desogestrel, reference compound]
Reply: 54

Ask: Answer with reported hPXR agonism Max of CCCOCCN(C(=O)CCl)c1c(CC)cccc1CC [Pretilachlor]
Reply: 94

Ask: Answer with reported hPXR agonism Max of ClC1=C(Cl)[C@]2(Cl)[C@@H]3[C@@H](Cl)[C@@H]4O[C@@H]4[C@@H]3[C@@]1(Cl)C2(Cl)Cl [Heptachlor endo-epoxide]
Reply: 69

Ask: Answer with reported hPXR agonism Max of CCCN(CCOc1c(Cl)cc(Cl)cc1Cl)C(=O)n1ccnc1 [Prochloraz]
Reply: 71

Ask: Answer with reported hPXR agonism Max of N#CC(CCc1ccc(Cl)cc1)(Cn1cncn1)c1ccccc1 (centres unmarked) [Fenbuconazole]
Reply: 43

Ask: Answer with reported hPXR agonism Max of ClC1=C(Cl)[C@]2(Cl)[C@@H]3[C@@H]4C[C@@H]([C@H]5O[C@@H]45)[C@@H]3[C@@]1(Cl)C2(Cl)Cl [Dieldrin]
Reply: 62

Ask: Answer with reported hPXR agonism Max of CCOP(=S)(OCC)Oc1nc(Cl)c(Cl)cc1Cl [Chlorpyriphos]
Reply: 95
